Values from patent US20090176817A1

# testDescription: clinical
# assaySetup: male, human, in vivo, po, 4 mg
recordedMetric: Tmax (h)
API: value field is a number in h; no unit string.

Enquiry: For the molecule shown here, Cc1nccn1C[C@H]1CCc2c(c3cccc4c3n2CCC4)C1=O , give the reported Tmax.
Return: 1.25

###

# testDescription: clinical
# assaySetup: male, human, in vivo, Mean half-life
recordedMetric: half-life

Enquiry: For the compound shown here, Cc1nccn1C[C@H]1CCc2c(c3cccc4c3n2CCC4)C1=O , give the reported half-life.
Return: 1.6 to 1.9 h

###

# testDescription: clinical
# assaySetup: male, human, in vivo, 8 mg
# Protocol: The single- and multiple-dose pharmacokinetics of cilansetron at oral doses of 4 mg and 8 mg were evaluated in a randomized, double-blind, placebo controlled, parallel group study in 32 male subjects (14 subjects received 4 mg cilansetron, 14 received 8 mg cilansetron, and 4 received placebo). […]
recordedMetric: Vd/F

Enquiry: For the compound shown here, Cc1nccn1C[C@H]1CCc2c(c3cccc4c3n2CCC4)C1=O , give the reported Vd/F.
Return: 483 L

###

# testDescription: Study S241.1.111: relative bioavailability and food effect, 2 mg tablet vs oral solution
# Format: in vivo, human
# assaySetup: both sexes, human, in vivo, 2 mg, AUC(0-last)
recordedMetric: AUC(0-t)
Remember to quote the unit after the number.

Enquiry: For the compound shown here, Cc1nccn1C[C@H]1CCc2c(c3cccc4c3n2CCC4)C1=O [Cilansetron] , give the reported AUC(0-t).
Return: 22.4 ng·h/mL

###

# testDescription: Study S.241.1.103: 14C mass balance, 8 mg oral and IV
# Format: in vivo, human
# assaySetup: male, human, in vivo, iv, CL (blood)
recordedMetric: clearance (mL/min)
API: value field is a number in mL/min; no unit string.

Enquiry: For the compound shown here, Cc1nccn1C[C@H]1CCc2c(c3cccc4c3n2CCC4)C1=O , give the reported clearance.
Return: 1040

###

# testDescription: clinical
# assaySetup: male, human, in vivo, po, 32 mg
recordedMetric: Tmax (h)
API: value field is a number in h; no unit string.

Enquiry: For the molecule shown here, Cc1nccn1C[C@H]1CCc2c(c3cccc4c3n2CCC4)C1=O [Cilansetron] , give the reported Tmax.
Return: 1.5

###

# testDescription: Study S241.1.111: relative bioavailability and food effect, 2 mg tablet vs oral solution
# Format: in vivo, human
# assaySetup: both sexes, human, in vivo, po, 2 mg, T½
# Description: Subjects were randomized to receive a cilansetron 2 mg tablet after an overnight fast, a cilansetron 2 mg tablet after a high-fat breakfast, and a cilansetron 2 mg oral solution after an overnight fast during the three treatment periods, with a 7-day washout between periods. Serial blood sampling was performed up to 24 hours following each treatment, and plasma pharmacokinetics parameters for cilansetron and its metabolites, (4R)-hydroxy cilansetron and (4S)-hydroxy cilansetron, were estimated. […]
recordedMetric: half-life

Enquiry: For the molecule shown here, Cc1nccn1C[C@H]1CCc2c(c3cccc4c3n2CCC4)C1=O , give the reported half-life.
Return: 1.48 h

###

# testDescription: clinical
# assaySetup: male, human, in vivo, po, 8 mg, AUC
recordedMetric: AUC (ng·h/mL)
API: value field is a number in ng·h/mL; no unit string.

Enquiry: For the molecule shown here, Cc1nccn1C[C@H]1CCc2c(c3cccc4c3n2CCC4)C1=O , give the reported AUC.
Return: 89.9

###

# testDescription: Study S241.1.111: relative bioavailability and food effect, 2 mg tablet vs oral solution
# Type: in vivo, human
# assaySetup: both sexes, human, in vivo, po, 2 mg, Tmax
recordedMetric: Tmax (h)
API: value field is a number in h; no unit string.

Enquiry: For the compound shown here, Cc1nccn1C[C@H]1CCc2c(c3cccc4c3n2CCC4)C1=O [Cilansetron] , give the reported Tmax.
Return: 1

###

# testDescription: clinical
# assaySetup: male, human, in vivo, po, 64 mg
recordedMetric: Vd/F (L)
API: value field is a number in L; no unit string.

Enquiry: For the molecule shown here, Cc1nccn1C[C@H]1CCc2c(c3cccc4c3n2CCC4)C1=O , give the reported Vd/F.
Return: 204

###

# testDescription: clinical
# assaySetup: male, human, in vivo, iv, 4 mg
recordedMetric: half-life (h)
API: value field is a number in h; no unit string.

Enquiry: For the compound shown here, Cc1nccn1C[C@H]1CCc2c(c3cccc4c3n2CCC4)C1=O , give the reported half-life.
Return: 1.7

###

# testDescription: clinical
# assaySetup: male, human, in vivo, iv, 8 mg, Vz
# Method: Subjects were randomized to receive cilansetron 8 mg IV solution (30-minute infusion), cilansetron 8 mg oral solution, and a cilansetron 8 mg capsule during the three treatment periods, with a 23-day washout between periods. All doses were administered under fasted conditions. […] Table 2.7.1.2.3 presents descriptive statistics for the pharmacokinetic parameters of cilansetron capsule and oral solution, and the results of statistical comparisons between treatments (capsule versus solution). […]
recordedMetric: Vd (L)
API: value field is a number in L; no unit string.

Enquiry: For the compound shown here, Cc1nccn1C[C@H]1CCc2c(c3cccc4c3n2CCC4)C1=O [Cilansetron] , give the reported Vd.
Return: 66.7

###

# testDescription: Study S.241.1.109: single and multiple dose pharmacokinetics 2 mg TID
# Assay type: in vivo, human
# assaySetup: both sexes, human, in vivo
recordedMetric: Tmax (h)
API: value field is a number in h; no unit string.

Enquiry: For the molecule shown here, Cc1nccn1C[C@H]1CCc2c(c3cccc4c3n2CCC4)C1=O , give the reported Tmax.
Return: 1.75

###

# testDescription: clinical
# assaySetup: male, human, in vivo, po, 32 mg, T½
recordedMetric: half-life (h)
API: value field is a number in h; no unit string.

Enquiry: For the molecule shown here, Cc1nccn1C[C@H]1CCc2c(c3cccc4c3n2CCC4)C1=O , give the reported half-life.
Return: 1.44

###

# testDescription: clinical
# assaySetup: both, human, in vivo, po, 8 mg, Vz/F
recordedMetric: Vd/F (L)
API: value field is a number in L; no unit string.

Enquiry: For the compound shown here, Cc1nccn1C[C@H]1CCc2c(c3cccc4c3n2CCC4)C1=O [Cilansetron] , give the reported Vd/F.
Return: 388

###

# testDescription: clinical
# assaySetup: both, human, in vivo, 8 mg, AUC
recordedMetric: AUC (ng·h/mL)
API: value field is a number in ng·h/mL; no unit string.

Enquiry: For the compound shown here, Cc1nccn1C[C@H]1CCc2c(c3cccc4c3n2CCC4)C1=O , give the reported AUC.
Return: 112

###

# testDescription: clinical
# assaySetup: male, human, in vivo, po, 8 mg, AUC (0-last)
# Description: Subjects were randomized to receive cilansetron 8 mg IV solution (30-minute infusion), cilansetron 8 mg oral solution, and a cilansetron 8 mg capsule during the three treatment periods, with a 23-day washout between periods. All doses were administered under fasted conditions. […] Table 2.7.1.2.3 presents descriptive statistics for the pharmacokinetic parameters of cilansetron capsule and oral solution, and the results of statistical comparisons between treatments (capsule versus solution). […]
recordedMetric: AUC(0-t) (ng·h/mL)
API: value field is a number in ng·h/mL; no unit string.

Enquiry: For the compound shown here, Cc1nccn1C[C@H]1CCc2c(c3cccc4c3n2CCC4)C1=O [Cilansetron] , give the reported AUC(0-t).
Return: 62.1

###

# testDescription: clinical
# assaySetup: male, human, in vivo, iv, Tmax
recordedMetric: Tmax
Remember to quote the unit after the number.

Enquiry: For the compound shown here, Cc1nccn1C[C@H]1CCc2c(c3cccc4c3n2CCC4)C1=O , give the reported Tmax.
Return: 33 min

###

# testDescription: Study S.241.1.109: single and multiple dose pharmacokinetics 2 mg TID
# Assay type: in vivo, human
# assaySetup: both sexes, human, in vivo, 2 mg, Plasma Cmax
recordedMetric: Cmax

Enquiry: For the compound shown here, Cc1nccn1C[C@H]1CCc2c(c3cccc4c3n2CCC4)C1=O , give the reported Cmax.
Return: 6 to 7 ng/mL

###

# testDescription: clinical
# assaySetup: both, human, in vivo, Cmax
recordedMetric: Cmax (µg/mL)
API: value field is a number in µg/mL; no unit string.

Enquiry: For the compound shown here, Cc1nccn1C[C@H]1CCc2c(c3cccc4c3n2CCC4)C1=O , give the reported Cmax.
Return: 0.0769

###

# testDescription: Study S.241.1.103: 14C mass balance, 8 mg oral and IV
# Format: in vivo, human
# assaySetup: male, human, in vivo, po
recordedMetric: half-life (h)
API: value field is a number in h; no unit string.

Enquiry: For the molecule shown here, Cc1nccn1C[C@H]1CCc2c(c3cccc4c3n2CCC4)C1=O [Cilansetron] , give the reported half-life.
Return: 1.23

###

# System: cilansetron metabolism (ketoconazole 25 μM used as general inhibitor)
# testDescription: in vitro
# assaySetup: human, human hepatic microsomes, probe cilansetron (100 μM), overall metabolism
recordedMetric: inhibition at 25 μM (%)
API: value field is a number in %; no unit string.

Enquiry: For the compound shown here, CC(=O)N1CCN(c2ccc(OCC3COC(Cn4ccnc4)(c4ccc(Cl)cc4Cl)O3)cc2)CC1 (stereo not shown) , give the reported inhibition at 25 μM.
Return: 93
